# Experimental System: D2 receptors (Chlorocebus aethiops, UniProt P52702)
# Construct: expressed in transfected cells; host or cells: COS cells
# Sequence (P52702 whole entry): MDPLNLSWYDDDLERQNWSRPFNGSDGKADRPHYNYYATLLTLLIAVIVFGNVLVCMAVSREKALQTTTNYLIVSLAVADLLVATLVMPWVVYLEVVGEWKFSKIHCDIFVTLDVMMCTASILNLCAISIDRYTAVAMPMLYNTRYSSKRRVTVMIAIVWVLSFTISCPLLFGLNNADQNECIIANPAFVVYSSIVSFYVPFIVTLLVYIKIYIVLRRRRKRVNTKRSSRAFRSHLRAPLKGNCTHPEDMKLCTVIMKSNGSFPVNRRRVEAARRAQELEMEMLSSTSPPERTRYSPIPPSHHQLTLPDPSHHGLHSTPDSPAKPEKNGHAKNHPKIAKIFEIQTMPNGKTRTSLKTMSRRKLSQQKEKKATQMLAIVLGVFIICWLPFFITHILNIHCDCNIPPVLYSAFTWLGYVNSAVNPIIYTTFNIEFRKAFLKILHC
# Assay Details: D2 receptor binding, 3H-YM 09151-2 displacement, COS cell pellets
# Design: species or system African Green monkey
# Reported Conditions: recombinant receptor in COS cells; 0.5 nM 3H-YM 09151-2
pKi: −log10 of the molar value.
Catalogue of pKi values

Examples from the recorded data:
{"Molecule Smiles": "Cc1ccc(CN2CCN(c3ccc4ccccc4n3)CC2)cc1", "pKi": "< 5.40"}
{"Molecule Smiles": "Clc1ccc(CN2CCN(c3cnc4ccccc4n3)CC2)cc1", "pKi": "< 5.40"}
{"Molecule Smiles": "Clc1ccc(CN2CCN(c3ccc4c(n3)CCCC4)CC2)cc1", "pKi": 5.72}

Would you mind telling me what pKi value was observed for `Clc1ccc(CN2CCN(c3ccc4ccccc4c3)CC2)cc1` ?
< 5.40
